All values here come from paper PMC7060200.

Molecular target: T1, DNAJA2 (DJA2), His-tagged (UniProt O60884 1-412)
T1 construct: DNAJA2, J-domain co-chaperone of HSC70
T1 sequence (O60884 whole entry): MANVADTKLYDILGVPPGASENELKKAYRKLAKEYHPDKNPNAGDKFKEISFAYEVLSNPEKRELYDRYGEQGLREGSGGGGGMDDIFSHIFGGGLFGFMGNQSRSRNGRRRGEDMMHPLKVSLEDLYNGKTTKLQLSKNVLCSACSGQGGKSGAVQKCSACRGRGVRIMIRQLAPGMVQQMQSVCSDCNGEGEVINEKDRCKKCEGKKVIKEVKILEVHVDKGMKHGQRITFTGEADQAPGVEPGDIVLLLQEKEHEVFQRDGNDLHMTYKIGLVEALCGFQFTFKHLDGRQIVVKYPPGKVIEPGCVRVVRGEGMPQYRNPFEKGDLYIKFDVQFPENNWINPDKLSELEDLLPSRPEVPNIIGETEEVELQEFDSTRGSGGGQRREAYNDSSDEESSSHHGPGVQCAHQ
Experiment: ELISA; competition: 1 μM chaperone mixed with soluble peptide (titrated up to 100 μM, or fixed 100 μM in the screens) and bound to immobilised 1097-L; Kd of the competing peptide from linearised competition curves
Settings: both partners purified
Reported endpoint: Kd (µM)
Just the number please, in µM, no unit attached.

| Binder | Value |
| --- | --- |
| DCTVILCEH (peptide, UniProt P13569 1394-1402, looked up, source: synthetic peptide (Lifetein, unmodified, >85% purity)) [CFTR peptide 1398-S] | 4.45 |
| TVILCEHRIEAMLEC (peptide, UniProt P13569 1396-1410, looked up, CFTR, 15-mer numbered by its middle residue 1403, from NBD2; source: synthetic peptide (Lifetein, unmodified, >85% purity)) [CFTR peptide 1403-L, soluble unmodified] | 0.994 |
| TSLLMVIMG (peptide, UniProt P13569 465-473, looked up, source: synthetic peptide (Lifetein, unmodified, >85% purity)) [CFTR peptide 469-S] | 4.82 |

// returns reported Kd for input RTLKQAFADCTVILC (peptide, UniProt P13569 1386-1400, looked up, CFTR, 15-mer numbered by its middle residue 1393, from NBD2; source: synthetic peptide (Lifetein, unmodified, >85% purity)) [CFTR peptide 1393-L, soluble unmodified] 1.49

// returns reported Kd for input LRWFQMRIE (peptide, UniProt P13569 1096-1104, looked up, CFTR, 9-mer numbered by its central residue 1100, L4 side of the NT-L4 interface; source: synthetic peptide (Lifetein, unmodified, >85% purity)) [CFTR peptide 1100-S] 8.33
